// data source = the supplement of paper PMC12042874

Experiment: amyloid nucleation score (Sup35N fusion, yeast selection) (log enrichment); library NNK3; higher = more nucleation; inactive = no reads after selection;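 also: zero at mode of non-aggregating sequences after 7 days selection at 30°C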
Reported Property: amyloid nucleation score

Substance | Reported Result
EIICLSLLCS | 2.18
TSMRKSACSWTLFSLR | inactive
TSVNVWFPFLGVREGFGCSP | 1.37
QQKGHTYKLLYNGGRLYFPT | 0.29
LFYLGIYDFDGNW | inactive
SYFTVHHSCLGHTTQHVMLS | inactive
NLPHIYRDHRRFWVGFSIMT | 1.12
VRFVLDRIACLVGVYIYFWG | inactive
VITVSVTHNNANFFQMTDGM | 2.88
DFTYEL | inactive
IMPPEFVFIFHRMNGHYLGF | inactive
IVVANMWLLKKNYLRMELFA | inactive
TETSWDGVVLSLISCRFQSY | 3.02
VISCCP | inactive
SLFMMWLYVCQLYCLFDGIE | inactive
KPGIIIVFVGHG | inactive
YDYTRCLLYFVALRYQGGNS | inactive
LVWDKVSVVWNSKEGVNVRI | 0.256
TAKSSGINDRLTQRI | inactive
NCNPFCIRLWFPNEYICW | inactive
MKRGDDLHTLFITSVPKSGY | inactive
SYSKVCRSKRQI | 0.185
FYPTNGSGSRVLMHGNSMLC | inactive
CPYSFEAAEYFRYGRVGYFT | inactive
GSTVEYTFGDWKYQDMSSVC | inactive
YNGLVGLSNPCTIWESGWVW | inactive
FPHRMLRPCYESDTFPPWTG | inactive
ADVLFKFNSDMRRS | inactive
IVSNTTPTQPTSVLVNYSVR | inactive
DPYAGLDNLTRIWASKPSKY | inactive
FRLRGLKLTSNMDDWMLIKE | inactive
FGMSQKSSRGWGLNV | inactive
YSMIKFSISAD | inactive
LFMCIAMM | 0.284
RSRSYRMGSLLVKSWILTLT | inactive
FDDLSARVPLTVTLWPSHTA | inactive
